- Tested on: 843782-103-R-J1-PDC complex spheroid viability
- Assay comment: Anticancer human tumor 843782-103-R-J1-PDC patient-derived lung adenocarcinoma cell line growth inhibition [RAS]
- Test settings: curve of first compound; second compound 3.16 µM
Quantity kind: pIC50
pIC50 field: float, defined as -log10 of concentration (mol/L).

# annotated cases, reported pIC50 shown
O=C(c1ccc(F)c(F)c1Nc1ccc(I)cc1F)N1CC(O)([C@@H]2CCCCN2)C1 + C#Cc1c(F)ccc2cc(O)cc(-c3ncc4c(N5CC6CCC(C5)N6)nc(OCC56CCCN5CC(F)C6)nc4c3F)c12	7.45
CC(C)NCC(C(=O)N1CCN(c2ncnc3c2C(C)CC3O)CC1)c1ccc(Cl)cc1 (stereo not given) + C#Cc1c(F)ccc2cc(O)cc(-c3ncc4c(N5CC6CCC(C5)N6)nc(OCC56CCCN5CC(F)C6)nc4c3F)c12	6.41
C=CC(=O)Nc1cc(Nc2nccc(-c3cn(C)c4ccccc34)n2)c(OC)cc1N(C)CCN(C)C + C#Cc1c(F)ccc2cc(O)cc(-c3ncc4c(N5CC6CCC(C5)N6)nc(OCC56CCCN5CC(F)C6)nc4c3F)c12	6.64

Query (molecule): Nc1ccn(C2OC(CO)C(O)C2(F)F)c(=O)n1 (stereo not given) + C#Cc1c(F)ccc2cc(O)cc(-c3ncc4c(N5CC6CCC(C5)N6)nc(OCC56CCCN5CC(F)C6)nc4c3F)c12 ; field requested: pIC50
7.66

Next entry: CC(C)n1nc(-c2ccc3oc(N)nc3c2)c2c(N)ncnc21 + C#Cc1c(F)ccc2cc(O)cc(-c3ncc4c(N5CC6CCC(C5)N6)nc(OCC56CCCN5CC(F)C6)nc4c3F)c12
8.18

====

# viability, T/C per entry
- Test system: 843782-103-R-J1-PDC complex spheroid viability
- Assay comment: Anticancer human tumor 843782-103-R-J1-PDC cell line growth inhibition [RAS];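 further: viability read after seven days of compound exposure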
- Test settings: second compound 0.000949 µM; first compound 0.00316 µM; stronger effect = lower value
Kindly provide the numeric value in % only, without the unit symbol.

Solved entries (count: 7):
Nc1ccn(C2OC(CO)C(O)C2(F)F)c(=O)n1 (stereo not drawn) + CCn1c(-c2cc(N3CCN(C)CC3)cnc2C(C)OC)c2c3cc(ccc31)-c1csc(n1)CC(NC(=O)C1CC1C)C(=O)N1CCCC(N1)C(=O)OCC(C)(C)C2	83.4
C=CC(=O)N1CCN(c2nc(OCC3CCCN3C)nc3c(F)c(-c4nc(N)cc(C)c4C(F)(F)F)c(Cl)cc23)C(C)C1 (stereo not drawn) + CCn1c(-c2cccnc2C(C)OC)c2c3cc(ccc31)N1CCOC(CC(NC(=O)C(C(C)C)N(C)C(=O)C3(F)CCN(C(=O)C#CC(C)(C)N(C)C)CC3)C(=O)N3CCCC(N3)C(=O)OCC(C)(C)C2)C1	80.5
Nc1ccn(C2OC(CO)C(O)C2(F)F)c(=O)n1 (stereo not drawn) + CCn1c(-c2cccnc2C(C)OC)c2c3cc(ccc31)N1CCOC(CC(NC(=O)C(C(C)C)N(C)C(=O)C3(F)CCN(C(=O)C#CC(C)(C)N(C)C)CC3)C(=O)N3CCCC(N3)C(=O)OCC(C)(C)C2)C1	70.1
O=C(c1ccc(F)c(F)c1Nc1ccc(I)cc1F)N1CC(O)([C@@H]2CCCCN2)C1 + CCn1c(-c2cccnc2C(C)OC)c2c3cc(ccc31)N1CCOC(CC(NC(=O)C(C(C)C)N(C)C(=O)C3(F)CCN(C(=O)C#CC(C)(C)N(C)C)CC3)C(=O)N3CCCC(N3)C(=O)OCC(C)(C)C2)C1	74.1
CC(C)n1nc(-c2ccc3oc(N)nc3c2)c2c(N)ncnc21 + CCn1c(-c2cc(N3CCN(C)CC3)cnc2C(C)OC)c2c3cc(ccc31)-c1csc(n1)CC(NC(=O)C1CC1C)C(=O)N1CCCC(N1)C(=O)OCC(C)(C)C2	58.7
CCN1CCN(Cc2ccc(Nc3ncc(F)c(-c4cc(F)c5nc(C)n(C(C)C)c5c4)n3)nc2)CC1 + CCn1c(-c2cccnc2C(C)OC)c2c3cc(ccc31)N1CCOC(CC(NC(=O)C(C(C)C)N(C)C(=O)C3(F)CCN(C(=O)C#CC(C)(C)N(C)C)CC3)C(=O)N3CCCC(N3)C(=O)OCC(C)(C)C2)C1	81
CCN1CCN(Cc2ccc(Nc3ncc(F)c(-c4cc(F)c5nc(C)n(C(C)C)c5c4)n3)nc2)CC1 + CCn1c(-c2cc(N3CCN(C)CC3)cnc2C(C)OC)c2c3cc(ccc31)-c1csc(n1)CC(NC(=O)C1CC1C)C(=O)N1CCCC(N1)C(=O)OCC(C)(C)C2	79.5

We now examine a further molecule.
GET /values?readout=viability, T/C&system=843782-103-R-J1-PDC complex spheroid viability&item= C=CC(=O)N1CCN(c2nc(OCC3CCCN3C)nc3c(F)c(-c4nc(N)cc(C)c4C(F)(F)F)c(Cl)cc23)C(C)C1 (stereo not drawn) + CCn1c(-c2cc(N3CCN(C)CC3)cnc2C(C)OC)c2c3cc(ccc31)-c1csc(n1)CC(NC(=O)C1CC1C)C(=O)N1CCCC(N1)C(=O)OCC(C)(C)C2
64.2
